Origin of measurements: patent US5401736A

Target: angiotensin II receptor type 1 (AT1), suprarenal gland of rabbit (Oryctolagus cuniculus, UniProt P34976)
Construct: Receptor: suprarenal gland of rabbit; from tissue; host or cells: suprarenal gland (adrenal) of rabbit
Sequence (P34976 whole entry): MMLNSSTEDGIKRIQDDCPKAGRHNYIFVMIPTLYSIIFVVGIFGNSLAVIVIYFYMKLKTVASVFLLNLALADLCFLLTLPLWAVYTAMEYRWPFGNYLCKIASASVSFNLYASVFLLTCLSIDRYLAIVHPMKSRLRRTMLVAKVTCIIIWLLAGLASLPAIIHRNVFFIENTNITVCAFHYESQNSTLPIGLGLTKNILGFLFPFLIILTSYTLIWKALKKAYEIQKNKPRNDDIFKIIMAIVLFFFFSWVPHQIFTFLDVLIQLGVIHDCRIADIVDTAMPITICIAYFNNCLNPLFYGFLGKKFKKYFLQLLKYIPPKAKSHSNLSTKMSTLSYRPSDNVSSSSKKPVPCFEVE
Experiment: Receptor binding test, AT1 (tracer 3H-angiotensin II, displacer DuP753)
Details: room temperature, read-out: Binding inhibition ratio (%) of the test compounds at 1 μM, AT1
experimental-readout: inhibition at 1 µM (%)

See these solved cases before continuing.
[
  {
    "molecule": "O=C(O)c1ccc(Cn2cnc3c2C[C@@H](C(=O)N2CCOCC2)N(C(=O)C(c2ccccc2)c2ccccc2)C3)cc1",
    "experimental-readout": "inhibition at 1 µM",
    "numeric-value": 0
  },
  {
    "molecule": "O=C(O)C1Cc2c(ncn2Cc2ccc(-c3ccccc3-c3nn[nH]n3)cc2)CN1C(=O)C(c1ccccc1)c1ccccc1 (stereo not shown) [Reference compound 27, reference compound]",
    "experimental-readout": "inhibition at 1 µM",
    "numeric-value": 0
  },
  {
    "molecule": "CCCCc1nc2c(n1Cc1ccc(-c3ccccc3-c3nn[nH]n3)c(C)c1)C[C@@H](C(=O)N(C)C)N(C(=O)C(c1ccccc1)c1ccccc1)C2",
    "experimental-readout": "inhibition at 1 µM",
    "numeric-value": 100
  }
]

P. CCCCc1nc2c(n1Cc1ccc(-c3ccccc3-c3nn[nH]n3)cc1)C[C@@H](C(=O)N(CC)CC)N(C(=O)C(c1ccccc1)c1ccccc1)C2
Q. Cc1cc(Cn2cnc3c2CC(C(=O)O)N(C(=O)C(c2ccccc2)c2ccccc2)C3)ccc1N (stereo not shown) [PD123177, reference compound]
Lookup: Of the two listed items, which has the higher inhibition at 1 µM? First: P Second: Q Choose, then provide that item's label.
Found: P

A. Cc1cc(Cn2cnc3c2CC(C(=O)O)N(C(=O)C(c2ccccc2)c2ccccc2)C3)ccc1NC(=O)c1ccccc1C(=O)O (stereo not shown) [Reference compound 1, reference compound]
B. CCCc1nc2c(n1Cc1ccc(-c3ccccc3-c3nn[nH]n3)c(C)c1)CC(C(=O)O)N(C(=O)C(c1ccccc1)c1ccccc1)C2 (stereo not shown) [Reference compound 26, reference compound]
Lookup: Look at A and B . Which one has the lower recorded inhibition at 1 µM number? Choose, then provide that item's label.
Found: A
(A: 0%, B: 78%)
